The measurements presented in this section are drawn from ChEMBL document CHEMBL1155097.

- assay.system: Voltage-dependent T-type calcium channel subunit alpha-1G (Homo sapiens, UniProt O43497)
- Sequence (O43497 whole entry): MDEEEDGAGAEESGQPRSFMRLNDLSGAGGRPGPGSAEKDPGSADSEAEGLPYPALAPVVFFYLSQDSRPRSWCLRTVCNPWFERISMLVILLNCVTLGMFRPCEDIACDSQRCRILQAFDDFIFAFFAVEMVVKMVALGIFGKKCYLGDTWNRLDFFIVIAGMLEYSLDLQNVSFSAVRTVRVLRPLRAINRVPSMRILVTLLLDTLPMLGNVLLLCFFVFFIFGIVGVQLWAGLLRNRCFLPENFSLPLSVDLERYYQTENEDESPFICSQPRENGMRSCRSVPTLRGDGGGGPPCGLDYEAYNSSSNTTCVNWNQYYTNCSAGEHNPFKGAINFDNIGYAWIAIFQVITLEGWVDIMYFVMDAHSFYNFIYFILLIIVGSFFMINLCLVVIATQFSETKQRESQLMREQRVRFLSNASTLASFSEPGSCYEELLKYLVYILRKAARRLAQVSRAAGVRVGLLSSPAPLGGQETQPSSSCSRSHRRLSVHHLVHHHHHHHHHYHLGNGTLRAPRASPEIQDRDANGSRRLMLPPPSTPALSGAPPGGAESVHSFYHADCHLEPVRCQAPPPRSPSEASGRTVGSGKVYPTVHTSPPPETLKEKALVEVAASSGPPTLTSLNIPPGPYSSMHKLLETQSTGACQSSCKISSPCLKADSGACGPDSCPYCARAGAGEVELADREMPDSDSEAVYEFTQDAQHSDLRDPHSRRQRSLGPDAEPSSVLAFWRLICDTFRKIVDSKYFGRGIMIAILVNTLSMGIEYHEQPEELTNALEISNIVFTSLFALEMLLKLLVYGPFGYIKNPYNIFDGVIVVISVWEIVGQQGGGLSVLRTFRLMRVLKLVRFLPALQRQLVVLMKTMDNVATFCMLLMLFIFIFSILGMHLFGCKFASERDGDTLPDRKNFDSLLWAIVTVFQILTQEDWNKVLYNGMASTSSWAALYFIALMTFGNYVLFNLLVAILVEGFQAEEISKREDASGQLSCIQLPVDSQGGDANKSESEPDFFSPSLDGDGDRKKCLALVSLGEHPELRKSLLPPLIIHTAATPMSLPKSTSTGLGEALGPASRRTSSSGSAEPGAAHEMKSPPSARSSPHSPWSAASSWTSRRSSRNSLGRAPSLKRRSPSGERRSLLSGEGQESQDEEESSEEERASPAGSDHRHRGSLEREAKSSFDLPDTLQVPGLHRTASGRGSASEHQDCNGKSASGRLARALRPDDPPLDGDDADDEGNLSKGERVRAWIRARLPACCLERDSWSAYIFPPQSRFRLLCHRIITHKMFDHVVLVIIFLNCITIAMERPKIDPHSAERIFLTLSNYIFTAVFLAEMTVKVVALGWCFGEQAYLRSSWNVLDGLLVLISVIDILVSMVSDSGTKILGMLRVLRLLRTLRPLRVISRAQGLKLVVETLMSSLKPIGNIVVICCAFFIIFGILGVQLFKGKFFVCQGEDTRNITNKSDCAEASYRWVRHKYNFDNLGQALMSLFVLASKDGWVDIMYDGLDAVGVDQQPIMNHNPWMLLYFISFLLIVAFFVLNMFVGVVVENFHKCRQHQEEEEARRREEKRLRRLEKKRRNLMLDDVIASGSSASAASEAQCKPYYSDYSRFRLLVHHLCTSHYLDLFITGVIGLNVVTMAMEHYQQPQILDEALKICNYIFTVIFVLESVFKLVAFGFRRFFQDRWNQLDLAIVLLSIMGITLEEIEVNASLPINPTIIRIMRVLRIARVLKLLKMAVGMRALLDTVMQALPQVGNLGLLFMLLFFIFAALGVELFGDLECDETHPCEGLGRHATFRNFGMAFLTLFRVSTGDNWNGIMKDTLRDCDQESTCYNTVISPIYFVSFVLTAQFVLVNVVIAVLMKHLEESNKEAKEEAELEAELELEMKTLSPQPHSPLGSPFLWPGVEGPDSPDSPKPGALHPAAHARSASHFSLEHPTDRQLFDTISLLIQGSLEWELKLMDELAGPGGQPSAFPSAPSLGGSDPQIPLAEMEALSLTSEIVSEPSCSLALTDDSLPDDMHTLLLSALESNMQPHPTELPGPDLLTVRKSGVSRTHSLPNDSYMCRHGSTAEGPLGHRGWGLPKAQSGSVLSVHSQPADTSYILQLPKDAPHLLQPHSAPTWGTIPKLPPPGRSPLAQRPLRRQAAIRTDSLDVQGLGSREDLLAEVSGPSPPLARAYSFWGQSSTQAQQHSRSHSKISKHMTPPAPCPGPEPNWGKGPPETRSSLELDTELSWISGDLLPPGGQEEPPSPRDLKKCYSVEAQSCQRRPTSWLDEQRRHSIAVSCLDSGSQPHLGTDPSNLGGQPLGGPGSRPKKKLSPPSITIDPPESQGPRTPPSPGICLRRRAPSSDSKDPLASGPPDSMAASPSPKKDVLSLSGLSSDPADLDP
- experimental.details: Inhibition of T-type calcium channel Cav3.1 alpha1G expressed in HEK293 cells by whole cell patch-clamp method
measured.property: pIC50
// returns pIC50 (minus log10 of molar concentration), number only

Input line: Checklist item: pIC50 tested on Voltage-dependent T-type calcium channel subunit alpha-1G (Homo sapiens, UniProt O43497), entry CCN1C(N2CCCCC2)=Nc2ccccc2C1CC(=O)NCc1ccc(NS(=O)(=O)c2ccc(F)cc2)cc1 (stereo not given) , value?
Output line: 5.98

Input line: Now the same for CC(C)(C)OC(=O)NCCCCCNC1=Nc2ccccc2C(CC(=O)NCc2ccccc2)N1c1ccccc1 (stereo not given)
Output line: 6.24

Input line: Now the same for CN(C)C1=Nc2ccccc2C(CC(=O)NCc2ccc([N+](=O)[O-])cc2)N1c1ccccc1 (stereo not given)
Output line: 6.46

Input line: Now the same for Cc1ccc(S(=O)(=O)Nc2ccc(CNC(=O)CC3c4ccccc4N=C(N(C)C)N3c3ccccc3)cc2)cc1 (stereo not given)
Output line: 6.20

Input line: Now the same for CN(C)C1=Nc2ccccc2C(CC(=O)NCc2ccc(N)cc2)N1c1ccccc1 (stereo not given)
Output line: 6.42

* * *

- System: A549
- experimental.details: Growth inhibition of human A549 cells after 72 hrs by SRB assay
- Format: functional
- test.context: A549, 72 h
measured.property: GI50 (µM)
Note: unit µM is implicit; provide only the numeric part.

Input line: State the recorded GI50 for this entry: CC(C)(C)OC(=O)NCCCCCNC1=Nc2ccccc2C(CC(=O)NCc2ccccc2)N1c1ccc(-c2ccccc2)cc1 (stereo unspecified)
Output line: 1.83

Input line: Now the same for COC(=O)CC1c2ccccc2N=C(N(C)CCCCCN(C)C)N1c1ccc(-c2ccccc2)cc1 (stereo unspecified)
Output line: 1.77

Input line: Now the same for CC(C)(C)OC(=O)NCCCCCN1C(Nc2ccc(-c3ccccc3)cc2)=Nc2ccccc2C1CC(=O)NCc1ccccc1 (stereo unspecified)
Output line: 1.87

Input line: Now the same for CCN1C(N2CCCCC2)=Nc2ccccc2C1CC(=O)NCc1ccc(NS(=O)(=O)c2ccc(F)cc2)cc1 (stereo unspecified)
Output line: 24.5

Input line: Now the same for CN(CCCCCN1CCCC1)C1=Nc2ccccc2C(CC(=O)NCc2ccccc2)N1c1ccc(-c2ccccc2)cc1 (stereo unspecified)
Output line: 0.87

* * *

- System: HT-29
- experimental.details: Growth inhibition of human HT29 cells after 72 hrs by SRB assay
- Type: functional
- test.context: HT-29, 72 h
measured.property: GI50 (µM)
Note: unit µM is implicit; provide only the numeric part.

Input line: State the recorded GI50 for this entry: COc1cccc2c1C(=O)c1c(O)c3c(c(O)c1C2=O)C[C@@](O)(C(=O)CO)C[C@@H]3O[C@H]1C[C@H](N)[C@H](O)[C@H](C)O1 (stereo in doubt)
Output line: 0.21

Input line: Now the same for Cc1ccc(S(=O)(=O)Nc2ccc(CNC(=O)CC3c4ccccc4N=C(N(C)C)N3c3ccccc3)cc2)cc1 (centres undefined)
Output line: 3.15

Input line: Now the same for COC(=O)CC1c2ccccc2N=C(N(C)CCCCCN(C)C)N1c1ccc(-c2ccccc2)cc1 (centres undefined)
Output line: 0.52

Input line: Now the same for O=C(CC1c2ccccc2N=C(N2CCCCC2)N1c1ccccc1)NCc1ccc(NS(=O)(=O)c2ccc(F)cc2)cc1 (centres undefined)
Output line: 1.71

* * *

Would you mind telling me the reported GI50 of each entry?
- Test system: HT-29
- experimental.details: Growth inhibition of human HT29 cells after 72 hrs by SRB assay
- Format: functional
- test.context: HT-29, 72 h
Don't forget the unit after the value.

Input line: Checklist item: GI50 tested on HT-29, entry COC(=O)CC1c2ccccc2N=C(Nc2ccc(-c3ccccc3)cc2)N1CCCCCN (stereo not given) , value?
Output line: 1080 nM

Input line: Now the same for CN(C)C1=Nc2ccccc2C(CC(=O)NCc2ccc([N+](=O)[O-])cc2)N1c1ccccc1 (stereo not given)
Output line: 22300 nM

Input line: Now the same for CCN1C(N2CCCCC2)=Nc2ccccc2C1CC(=O)NCc1ccc(NS(=O)(=O)c2ccc(F)cc2)cc1 (stereo not given)
Output line: 13900 nM

Input line: Now the same for CC(C)(C)OC(=O)NCCCCCN1C(Nc2ccc(-c3ccccc3)cc2)=Nc2ccccc2C1CC(=O)NCc1ccccc1 (stereo not given)
Output line: 1700 nM

Input line: Now the same for COC(=O)CC1c2ccccc2N=C(NCCCCCNC(=O)OC(C)(C)C)N1c1ccc(-c2ccccc2)cc1 (stereo not given)
Output line: 2080 nM

Input line: Now the same for CN(C)CCCCCN(C)C1=Nc2ccccc2C(CC(=O)NCc2ccccc2)N1c1ccc(-c2ccccc2)cc1 (stereo not given)
Output line: 40 nM

Input line: Now the same for CN(CCCCCN1CCCC1)C1=Nc2ccccc2C(CC(=O)NCc2ccccc2)N1c1ccc(-c2ccccc2)cc1 (stereo not given)
Output line: 610 nM

Input line: Now the same for CC(C)(C)OC(=O)NCCCCCNC1=Nc2ccccc2C(CC(=O)NCc2ccccc2)N1c1ccc(-c2ccccc2)cc1 (stereo not given)
Output line: 1670 nM

Input line: Now the same for CN(C)C1=Nc2ccccc2C(CC(=O)NCc2ccc(N)cc2)N1c1ccccc1 (stereo not given)
Output line: 28300 nM

Input line: Now the same for CC(C)(C)OC(=O)NCCCCCNC1=Nc2ccccc2C(CC(=O)NCc2ccccc2)N1c1ccccc1 (stereo not given)
Output line: 3180 nM

* * *

- Tested on: DU-145
- experimental.details: Growth inhibition of human DU145 cells after 72 hrs by SRB assay
- Type: functional
- test.context: DU-145, 72 h
measured.property: GI50 (nM)
Note: unit nM is implicit; provide only the numeric part.

Input line: State the recorded GI50 for this entry: Cc1ccc(S(=O)(=O)Nc2ccc(CNC(=O)CC3c4ccccc4N=C(N(C)C)N3c3ccccc3)cc2)cc1 (centres undefined)
Output line: 6520

Input line: Now the same for COC(=O)CC1c2ccccc2N=C(N(C)CCCCCN(C)C)N1c1ccc(-c2ccccc2)cc1 (centres undefined)
Output line: 1780

Input line: Now the same for CN(C)CCCCCN(C)C1=Nc2ccccc2C(CC(=O)NCc2ccccc2)N1c1ccc(-c2ccccc2)cc1 (centres undefined)
Output line: 190

Input line: Now the same for CC(C)(C)OC(=O)NCCCCCN1C(Nc2ccc(-c3ccccc3)cc2)=Nc2ccccc2C1CC(=O)NCc1ccccc1 (centres undefined)
Output line: 1790

Input line: Now the same for O=C(CC1c2ccccc2N=C(N2CCCCC2)N1c1ccccc1)NCc1ccc(NS(=O)(=O)c2ccc(F)cc2)cc1 (centres undefined)
Output line: 1710

Input line: Now the same for CC(C)(C)OC(=O)NCCCCCNC1=Nc2ccccc2C(CC(=O)NCc2ccccc2)N1c1ccc(-c2ccccc2)cc1 (centres undefined)
Output line: 1640

Input line: Now the same for COC(=O)CC1c2ccccc2N=C(NCCCCCNC(=O)OC(C)(C)C)N1c1ccc(-c2ccccc2)cc1 (centres undefined)
Output line: 3830

Input line: Now the same for CCN1C(N2CCCCC2)=Nc2ccccc2C1CC(=O)NCc1ccc(NS(=O)(=O)c2ccc(F)cc2)cc1 (centres undefined)
Output line: 17200

Input line: Now the same for CC(C)(C)OC(=O)NCCCCCNC1=Nc2ccccc2C(CC(=O)NCc2ccccc2)N1c1ccccc1 (centres undefined)
Output line: 4260

Input line: Now the same for COc1cccc2c1C(=O)c1c(O)c3c(c(O)c1C2=O)C[C@@](O)(C(=O)CO)C[C@@H]3O[C@H]1C[C@H](N)[C@H](O)[C@H](C)O1 (stereo in doubt) [DOXORUBICIN]
Output line: 60

Input line: Now the same for COC(=O)CC1c2ccccc2N=C(Nc2ccc(-c3ccccc3)cc2)N1CCCCCN (centres undefined)
Output line: 4090

Input line: Now the same for CN(CCCCCN1CCCC1)C1=Nc2ccccc2C(CC(=O)NCc2ccccc2)N1c1ccc(-c2ccccc2)cc1 (centres undefined)
Output line: 2490

* * *

- System: SK-MEL-2
- experimental.details: Growth inhibition of human SK-MEL-2 cells after 72 hrs by SRB assay
- Format: functional
- test.context: SK-MEL-2, 72 h
Would you mind telling me the reported log10 of GI50 of each entry?
Heads up: the numbers are on a log10 scale; they represent GI50 in µM.

Input line: State the recorded log10 of GI50 for this entry: COC(=O)CC1c2ccccc2N=C(NCCCCCNC(=O)OC(C)(C)C)N1c1ccc(-c2ccccc2)cc1 (centres undefined)
Output line: 0.63

Input line: Now the same for CC(C)(C)OC(=O)NCCCCCN1C(Nc2ccc(-c3ccccc3)cc2)=Nc2ccccc2C1CC(=O)NCc1ccccc1 (centres undefined)
Output line: 0.20

Input line: Now the same for CC(C)(C)OC(=O)NCCCCCNC1=Nc2ccccc2C(CC(=O)NCc2ccccc2)N1c1ccc(-c2ccccc2)cc1 (centres undefined)
Output line: 0.17

Input line: Now the same for O=C(CC1c2ccccc2N=C(N2CCCCC2)N1c1ccccc1)NCc1ccc(NS(=O)(=O)c2ccc(F)cc2)cc1 (centres undefined)
Output line: 0.24

Input line: Now the same for CN(CCCCCN1CCCC1)C1=Nc2ccccc2C(CC(=O)NCc2ccccc2)N1c1ccc(-c2ccccc2)cc1 (centres undefined)
Output line: -0.16

Input line: Now the same for CN(C)CCCCCN(C)C1=Nc2ccccc2C(CC(=O)NCc2ccccc2)N1c1ccc(-c2ccccc2)cc1 (centres undefined)
Output line: -0.32

Input line: Now the same for CN(C)C1=Nc2ccccc2C(CC(=O)NCc2ccc(N)cc2)N1c1ccccc1 (centres undefined)
Output line: 1.64

Input line: Now the same for CC(C)(C)OC(=O)NCCCCCNC1=Nc2ccccc2C(CC(=O)NCc2ccccc2)N1c1ccccc1 (centres undefined)
Output line: 0.31

Input line: Now the same for CN(C)C1=Nc2ccccc2C(CC(=O)NCc2ccc([N+](=O)[O-])cc2)N1c1ccccc1 (centres undefined)
Output line: 1.50

Input line: Now the same for COC(=O)CC1c2ccccc2N=C(N(C)CCCCCN(C)C)N1c1ccc(-c2ccccc2)cc1 (centres undefined)
Output line: 0.28

Input line: Now the same for COc1cccc2c1C(=O)c1c(O)c3c(c(O)c1C2=O)C[C@@](O)(C(=O)CO)C[C@@H]3O[C@H]1C[C@H](N)[C@H](O)[C@H](C)O1 (stereo in doubt)
Output line: -0.96

Input line: Now the same for CCN1C(N2CCCCC2)=Nc2ccccc2C1CC(=O)NCc1ccc(NS(=O)(=O)c2ccc(F)cc2)cc1 (centres undefined)
Output line: 1.23

Input line: Now the same for Cc1ccc(S(=O)(=O)Nc2ccc(CNC(=O)CC3c4ccccc4N=C(N(C)C)N3c3ccccc3)cc2)cc1 (centres undefined)
Output line: 0.93

Input line: Now the same for COC(=O)CC1c2ccccc2N=C(Nc2ccc(-c3ccccc3)cc2)N1CCCCCN (centres undefined)
Output line: 0.26
